Reference source: the RNAGym collection of RNA variant scans (doi:10.1073/pnas.2313332121)

Entries and their polymerase ribozyme fitness (log ratio) values follow.
B1: TPR t1 (parent)
chain: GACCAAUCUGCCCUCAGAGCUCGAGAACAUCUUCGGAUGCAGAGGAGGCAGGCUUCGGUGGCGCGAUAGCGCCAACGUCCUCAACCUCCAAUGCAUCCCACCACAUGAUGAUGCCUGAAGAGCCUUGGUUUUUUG

- Variants of: B1
- test_details: polymerase ribozyme fitness, log enrichment relative to wild type (log ratio); higher = more active; in vitro selection for triplet polymerase activity
measured_endpoint: polymerase ribozyme fitness (log ratio)

[
  {
    "mutant_designation": "G47A C56U",
    "measured_endpoint": "polymerase ribozyme fitness (log ratio)",
    "observed_result": 0.000278
  },
  {
    "mutant_designation": "C12G G61C",
    "measured_endpoint": "polymerase ribozyme fitness (log ratio)",
    "observed_result": -0.968
  },
  {
    "mutant_designation": "G48U C72A G113C",
    "measured_endpoint": "polymerase ribozyme fitness (log ratio)",
    "observed_result": -2.2
  },
  {
    "mutant_designation": "G52C C62U C72A C82U A119U",
    "measured_endpoint": "polymerase ribozyme fitness (log ratio)",
    "observed_result": -1.34
  },
  {
    "mutant_designation": "U7C A24U G61U",
    "measured_endpoint": "polymerase ribozyme fitness (log ratio)",
    "observed_result": -7.38
  },
  {
    "mutant_designation": "C20A G120U",
    "measured_endpoint": "polymerase ribozyme fitness (log ratio)",
    "observed_result": -2.44
  },
  {
    "mutant_designation": "A2C C15U C56U U129C",
    "measured_endpoint": "polymerase ribozyme fitness (log ratio)",
    "observed_result": -1.75
  },
  {
    "mutant_designation": "C15G C49G G61A C85A G110A",
    "measured_endpoint": "polymerase ribozyme fitness (log ratio)",
    "observed_result": -3.95
  },
  {
    "mutant_designation": "C8G C28A U130A",
    "measured_endpoint": "polymerase ribozyme fitness (log ratio)",
    "observed_result": -5.09
  },
  {
    "mutant_designation": "U14A G48U U59G",
    "measured_endpoint": "polymerase ribozyme fitness (log ratio)",
    "observed_result": -2.71
  },
  {
    "mutant_designation": "G69A G117U C124A",
    "measured_endpoint": "polymerase ribozyme fitness (log ratio)",
    "observed_result": -4.19
  },
  {
    "mutant_designation": "A5U G110A",
    "measured_endpoint": "polymerase ribozyme fitness (log ratio)",
    "observed_result": -1
  },
  {
    "mutant_designation": "A43U G45C C49U G61U G120A",
    "measured_endpoint": "polymerase ribozyme fitness (log ratio)",
    "observed_result": -1.99
  },
  {
    "mutant_designation": "G47A A50U G57U C82A",
    "measured_endpoint": "polymerase ribozyme fitness (log ratio)",
    "observed_result": -2.37
  },
  {
    "mutant_designation": "C13G C20U C64U C104A A111U U130G",
    "measured_endpoint": "polymerase ribozyme fitness (log ratio)",
    "observed_result": -5.67
  },
  {
    "mutant_designation": "C11G U32G U125A U126G",
    "measured_endpoint": "polymerase ribozyme fitness (log ratio)",
    "observed_result": -6.54
  },
  {
    "mutant_designation": "A37U A50U G52A",
    "measured_endpoint": "polymerase ribozyme fitness (log ratio)",
    "observed_result": -2.94
  },
  {
    "mutant_designation": "G61A U116G G128C",
    "measured_endpoint": "polymerase ribozyme fitness (log ratio)",
    "observed_result": -4.66
  },
  {
    "mutant_designation": "A18U U55G C82G G120A",
    "measured_endpoint": "polymerase ribozyme fitness (log ratio)",
    "observed_result": -3.38
  },
  {
    "mutant_designation": "C3G G47C G52A U87A C124G",
    "measured_endpoint": "polymerase ribozyme fitness (log ratio)",
    "observed_result": -4.41
  }
]
